meta.source: PubChem BioAssay AID602292

tgt: Thyrotropin receptor (Homo sapiens)
protocol.description: qHTS for antagonists of the Thyroid Stimulation Hormone Receptor: Hit Validation in Primary Screen; also: nearly all actives have a fitted effect of over 80% in size
assay.context: TSHR-expressing cells, cAMP antagonist mode; series mostly up to 58 µM
Excerpt: The thyroid-stimulating hormone receptor (TSHR) is a member of the 7 trans-membrane-spanning receptor (7TMR) family of cell surface receptors. TSHR-mediated hyperthyroidism is important in thyroid pathology. […] 8. The result is obtained by using a ViewLux read-out with HTRF settings.
Out of some 1,300 compounds screened, about 380 (29%) were called active. Not shown: some 37% with an inconclusive outcome. Calls follow the shape of the dose curve; as a rule, active = well fitted inhibition curve with a large enough effect; inconclusive = small, poorly fitted or top-dose-only effect; inactive = flat fitted curve, though single readings scatter. This is one part of the list.
Classes used: Yes for active, No for inactive

INSERT INTO assay_data (compound, qualitative_label) VALUES
  ('Cc1ccccc1-c1nc(CS(=O)CC(=O)N2CCC3(CC2)OCCO3)c(C)o1 (stereo not given)', 'No'),
  ('Nc1ccc(C2(c3ccc(N)cc3)c3ccccc3-c3ccccc32)cc1', 'Yes'),
  ('Cc1nc2ccccc2c(=O)n1-c1cccc(C(F)(F)F)c1', 'No'),
  ('Cc1ccc(-n2c(C)nc3ccccc3c2=O)c(C)c1', 'No'),
  ('O=C(Nc1ccc(Oc2ccc(Cl)cc2)c(Cl)c1)c1cc(I)cc(I)c1O', 'Yes');
